Assay: Plasma protein binding, dog plasma
Type: in vitro ADME
Conditions: 50 ng/mL, mean, read-out: plasma protein binding rate (converted)

Molecule: CC1(C)OC2CC(=O)OCC23C1C/C(=N\OCCN1CCOCC1)C1(C)C3CC[C@@]2(C)[C@H](c3ccoc3)OC(=O)C3OC312 (stereo partly shown) [HY-071085]
fraction unbound at 50 ng/mL: 0.622

====

Assay: Pharmacokinetics after repeated-dose intragastric administration in rats
Type: in vivo, Sprague Dawley rats
Conditions: male, Sprague Dawley, rat, plasma, po, 6.5 mg/kg, male rats, R-IG 6.5 mg/kg, 14 days
Experimental: Male and female rats were given HY-071085 (6.5 mg/kg) by gastric gavage twice a day for 28 days. […] According to the obtained plasma concentration time data, the pharmacokinetic parameters were calculated using Phoenix WinNonlin 8.1 software. […] Due to the drug having significant individual differences in rats, it could not be uniformly fitted with a PK atrioventricular model; as such, the pharmacokinetic parameters analyzed in this study were calculated using a non-atrioventricular model. […]

Molecule: CC1(C)OC2CC(=O)OCC23C1C/C(=N\OCCN1CCOCC1)C1(C)C3CC[C@@]2(C)[C@H](c3ccoc3)OC(=O)C3OC312 (stereo partly shown)
AUC(0-inf) / ng·h/mL: 133

====

Assay: Pharmacokinetics after single-dose intragastric administration in beagle dogs
Assay type: in vivo
Details: both sexes, dog, plasma, po, S-IG 1.25 mg/kg
Result type: AUC(0-inf) (ng·h/mL)

Molecule: CC1(C)OC2CC(=O)OCC23C1C/C(=N\OCCN1CCOCC1)C1(C)C3CC[C@@]2(C)[C@H](c3ccoc3)OC(=O)C3OC312 (stereo partly shown) [HY-071085]
Observed: 54.1

====

Experiment: Pharmacokinetics after single-dose intravenous administration in beagle dogs
Format: in vivo
Details: both sexes, dog, plasma, S-IV 1.25 mg/kg

Molecule: CC1(C)OC2CC(=O)OCC23C1C/C(=N\OCCN1CCOCC1)C1(C)C3CC[C@@]2(C)[C@H](c3ccoc3)OC(=O)C3OC312 (stereo partly shown)
MRT [min]: 37.2

====

Assay: Pharmacokinetics after single-dose intragastric administration in rats
Type: in vivo, Sprague Dawley rats
Details: Sprague Dawley, rat, plasma, po; male rats, S-IG 6.5 mg/kg

Compound: CC1(C)OC2CC(=O)OCC23C1C/C(=N\OCCN1CCOCC1)C1(C)C3CC[C@@]2(C)[C@H](c3ccoc3)OC(=O)C3OC312 (stereo partly shown)
AUC(0-inf) (ng·h/mL): 125

====

Experiment: Pharmacokinetics after repeated-dose intragastric administration in rats
Assay type: in vivo, Sprague Dawley rats
Conditions: Sprague-Dawley, rat, plasma, po; female rats, R-IG 6.5 mg/kg, 28 days

Compound: CC1(C)OC2CC(=O)OCC23C1C/C(=N\OCCN1CCOCC1)C1(C)C3CC[C@@]2(C)[C@H](c3ccoc3)OC(=O)C3OC312 (stereo partly shown)
Cmax at 28 days / ng/mL: 37.2

====

Experiment: Pharmacokinetics after repeated-dose intragastric administration in rats
Type: in vivo, Sprague Dawley rats
Settings: female, Sprague Dawley, rat, plasma, po, 6.5 mg/kg, female rats, R-IG 6.5 mg/kg, 28 days; read-out: AUC0-tn
Result type: AUC (ng·h/mL)

Compound: CC1(C)OC2CC(=O)OCC23C1C/C(=N\OCCN1CCOCC1)C1(C)C3CC[C@@]2(C)[C@H](c3ccoc3)OC(=O)C3OC312 (stereo partly shown)
Measure unit: ng·h/mL
Observed: 65.8

Provenance of the data: paper PMC9316000
